Quick reference for normalised response among some molecules
Tested on: MFM-223
Assay: normalised response (% of control), CellTox Green; higher = less cell death (100 = DMSO, 0 = benzethonium chloride kill control)
Conditions: incubation time: 72 h

Past entries and their recorded results:
>  <molecule>
Nc1cccc2c1CN(C1CCC(=O)NC1=O)C2=O (stereo unspecified) [Lenalidomide] (100 nM)

>  <target>
MFM-223

>  <endpoint-result>
107%

$$$$
>  <molecule>
O=C(CCBr)N1CCN(C(=O)CCBr)CC1 [Pipobroman] (100 nM)

>  <target>
MFM-223

>  <endpoint-result>
103%

$$$$

Q: Suppose we examine the molecule Cc1c(CN2CCN(C(=O)[C@H](C)O)CC2)sc2c(N3CCOCC3)nc(-c3cnc(N)nc3)nc12 [GDC-0980] (10000 nM) ; what normalised response value has been reported?
Ans: -39.7%

Q: Consider the molecule shown here: CC(=O)OC[C@H]1O[C@@H]([S-])[C@H](OC(C)=O)[C@@H](OC(C)=O)[C@@H]1OC(C)=O.CCP(CC)CC.[Au+] [Auranofin] (25 nM) What is its recorded normalised response?
Ans: 102%

Q: I'd like to know its normalised response. The molecule in question is Nc1ccccc1NC(=O)c1ccc(CNc2nccc(-c3cccnc3)n2)cc1 [Mocetinostat] (1000 nM)
Ans: 92.4%

Q: Need normalised response of Nc1cccc2c1CN(C1CCC(=O)NC1=O)C2=O (stereo unspecified) [Lenalidomide] (10000 nM) , thanks.
Ans: 80.3%

Q: Looking for the measured normalised response of CCN(CC)CCNC(=O)c1c(C)[nH]c(/C=C2\C(=O)Nc3ccc(F)cc32)c1C [Sunitinib] (10 nM) , can you help?
Ans: 98%

Q: Data request, read-out normalised response, for CNC(=O)c1cc(Oc2ccc(NC(=O)Nc3ccc(Cl)c(C(F)(F)F)c3)cc2)ccn1 [Sorafenib] (1000 nM)
Ans: 92.8%

Q: May I ask what normalised response has been recorded for O=C1c2c(O)ccc(O)c2C(=O)c2c(NCCNCCO)ccc(NCCNCCO)c21 [Mitoxantrone] (1000 nM) ?
Ans: 88%

Q: Look at this molecule and give its reported normalised response. Cc1ccc(Nc2nccc(N(C)c3ccc4c(C)n(C)nc4c3)n2)cc1S(N)(=O)=O [Pazopanib] (1000 nM)
Ans: 102%

Q: Please give the measured normalised response for this molecule: CCC/C=C/C=C/C(=O)O[C@H]1/C(=C/C(=O)OC)C[C@H]2C[C@H]([C@@H](C)O)OC(=O)C[C@H](O)C[C@@H]3C[C@H](OC(C)=O)C(C)(C)[C@](O)(C[C@@H]4C/C(=C/C(=O)OC)C[C@H](/C=C/C(C)(C)[C@]1(O)O2)O4)O3 [Bryostatin 1] (1 nM)
Ans: 104%

Q: For the molecule shown here, COc1cc(CCc2cc(NC(=O)c3ccc(N4CC(C)NC(C)C4)cc3)n[nH]2)cc(OC)c1 (stereo unspecified) [AZD4547] (10 nM) , give the reported normalised response.
Ans: 92.8%

Q: Entry under review: Cn1cc(CNCC2CCN(c3ncc(C(=O)NO)cn3)CC2)c2ccccc21 [Quisinostat] (1000 nM) . Reported normalised response?
Ans: 66.2%

Q: normalised response lookup needed for c1cc(CN2CCCNCCNCCCNCC2)ccc1CN1CCCNCCNCCCNCC1 [Plerixafor] (100 nM) , thanks.
Ans: 50.4%

Q: Given the entry Cc1c(Cn2c(C)nc3c(C(=O)O)cc(N4CCOCC4)cc32)cccc1C(F)(F)F (1000 nM) , report its measured normalised response.
Ans: 105%

Q: Endpoint output: normalised response of C[C@]12O[C@H](C[C@]1(O)CO)n1c3ccccc3c3c4c(c5c6ccccc6n2c5c31)CNC4=O [Lestaurtinib] (1000 nM) . Value?
Ans: 89.8%
